This collection of values is drawn from paper PMC6261661.

molecular target: mMC3R (Mus musculus, UniProt P33033); assay: Antagonist Schild analysis against agonist MTII at mMC3R; format: cell-based
Sequence (P33033 whole entry): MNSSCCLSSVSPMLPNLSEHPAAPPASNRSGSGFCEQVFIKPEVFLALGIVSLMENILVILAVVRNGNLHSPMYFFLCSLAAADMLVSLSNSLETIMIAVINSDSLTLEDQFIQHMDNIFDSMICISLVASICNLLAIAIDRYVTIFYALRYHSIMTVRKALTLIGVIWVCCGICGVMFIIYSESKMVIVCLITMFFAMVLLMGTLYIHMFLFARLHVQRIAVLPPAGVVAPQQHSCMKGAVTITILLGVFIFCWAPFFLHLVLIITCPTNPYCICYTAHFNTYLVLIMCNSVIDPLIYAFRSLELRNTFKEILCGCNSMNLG
Square brackets hold non-standard residues; d marks the D form. Peptide text beside a SMILES is read from it. dBip = N[C@H](Cc1ccc(-c2ccccc2)cc1)C(=O)O; dPhe(4-I) = N[C@H](Cc1ccc(I)cc1)C(=O)O; 3Pal = N[C@@H](Cc1cccnc1)C(=O)O

MOLECULE	ASSAYED TARGET	Kb / nM
CC(=O)N[C@@H](Cc1c[nH]c2ccccc12)C(=O)N[C@H](Cc1ccc(-c2ccccc2)cc1)C(=O)N[C@@H](CCCNC(=N)N)C(=O)N[C@@H](Cc1c[nH]c2ccccc12)C(N)=O [Peptide 18, Ac-Trp-DBip-Arg-Trp-NH2] (Ac-W[dBip]RW-NH2)	mMC3R (Mus musculus, UniProt P33033)	200
CC(=O)N[C@@H](Cc1cccnc1)C(=O)N[C@H](Cc1ccc(I)cc1)C(=O)N[C@@H](CCCNC(=N)N)C(=O)N[C@@H](Cc1c[nH]c2ccccc12)C(N)=O [Peptide 12, Ac-3PAL-(pI)DPhe-Arg-Trp-NH2] (Ac-[3Pal][dPhe(4-I)]RW-NH2)	mMC3R (Mus musculus, UniProt P33033)	100
